# pKi values compiled below
# target_or_test_system: 5-hydroxytryptamine receptor 2C (Rattus norvegicus, UniProt P08909)
# Sequence (P08909 whole entry): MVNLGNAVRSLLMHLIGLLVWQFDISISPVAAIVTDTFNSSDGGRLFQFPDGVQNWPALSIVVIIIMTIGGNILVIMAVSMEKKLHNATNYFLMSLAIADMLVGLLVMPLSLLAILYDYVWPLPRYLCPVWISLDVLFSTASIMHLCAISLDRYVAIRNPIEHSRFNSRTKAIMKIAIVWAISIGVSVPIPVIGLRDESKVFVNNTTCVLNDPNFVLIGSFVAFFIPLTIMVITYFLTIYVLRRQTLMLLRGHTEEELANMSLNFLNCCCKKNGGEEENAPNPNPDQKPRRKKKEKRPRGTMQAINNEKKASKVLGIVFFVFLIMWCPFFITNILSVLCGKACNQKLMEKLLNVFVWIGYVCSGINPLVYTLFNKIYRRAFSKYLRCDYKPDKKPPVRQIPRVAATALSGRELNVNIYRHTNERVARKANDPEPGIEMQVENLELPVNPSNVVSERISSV
pKi: −log10 of the molar value.

>  <chem_smiles>
C1=C(CN2CCOCC2)COc2c1cccc2OC[C@@H]1CNCCO1.Cl

>  <pKi>
< 5.00

$$$$

Next item in the queue.
Item C1=C(CN2CCOCC2)COc2c1cccc2OC[C@H]1CNCCO1.CS(=O)(=O)O was tested on 5-hydroxytryptamine receptor 2C (Rattus norvegicus, UniProt P08909); the reported pKi is < 5.00
